assay: yeast vacuolar ATPase proton transport modulators – pHLuorin cytosolic pH fluorescence, primary screen (AID 504577); note: actives read high; conditions: S. cerevisiae, at 10 µM, stronger effect = higher value
The whole screen tested about 350,000 compounds, of which about 1,300 (0.37%) were called active. Many of the other results were omitted from the sample, so actives are more common in it than they were.
# key: entry, value: response
# unit: % | format: bare number

Check out these entries, answers already filled in.
CSc1sc(C)cc1C1C(C#N)=C(N)N(c2cccnc2)C2=C1C(=O)CCC2 (stereo unspecified)
-0.16
CN(Cc1ccc2nsnc2c1)Cc1nc(Cc2cccc(F)c2)no1
14.4
CCCC[C@@H]1CN=C(N)N1CCc1cccc(F)c1
0.99
O=C(O)CCc1cccnc1
-0.98
CC(=O)Nc1c2c(nn1-c1ccc(C)cc1C)CS(=O)C2 (stereo unspecified)
-4.1

Shifting focus to the molecule that follows.
Reported response, molecule `COc1ccc(S(=O)(=O)N(C)C)cc1NC(=O)COC(=O)c1n[nH]c2ccccc12` : ____ -1.42
